Test system: HEK-293T
test details: Multiplex assay against HEK293T
Format: toxicity, cell-based
particulars: human, 24 h, 10 µM, compound concentration 10 uM, replicate 1
Quick reference for Population Apoptotic (%) among some compounds
metric name: Population Apoptotic (%)

- compound structure: "Nc1nc2c(c(N3CCNCC3)n1)CCC1=C2[C@@H]2CCCC[C@@H]2O1"
  assay target: "HEK-293T"
  value measured: 80
- compound structure: "CCOc1cc2ncc(C#N)c(Nc3ccc(OCc4cccc(F)c4)c(Cl)c3)c2cc1NC(=O)/C=C/CN(C)C"
  assay target: "HEK-293T"
  value measured: 28
- compound structure: "Cc1cc2c(cc1N1C(=O)c3cccc4c(CCCO)ccc(c34)C1=O)n(C)c(=O)n2C"
  assay target: "HEK-293T"
  value measured: 63
